Assayed System: Ornithine decarboxylase (Mus musculus)
Sequence (whole entry): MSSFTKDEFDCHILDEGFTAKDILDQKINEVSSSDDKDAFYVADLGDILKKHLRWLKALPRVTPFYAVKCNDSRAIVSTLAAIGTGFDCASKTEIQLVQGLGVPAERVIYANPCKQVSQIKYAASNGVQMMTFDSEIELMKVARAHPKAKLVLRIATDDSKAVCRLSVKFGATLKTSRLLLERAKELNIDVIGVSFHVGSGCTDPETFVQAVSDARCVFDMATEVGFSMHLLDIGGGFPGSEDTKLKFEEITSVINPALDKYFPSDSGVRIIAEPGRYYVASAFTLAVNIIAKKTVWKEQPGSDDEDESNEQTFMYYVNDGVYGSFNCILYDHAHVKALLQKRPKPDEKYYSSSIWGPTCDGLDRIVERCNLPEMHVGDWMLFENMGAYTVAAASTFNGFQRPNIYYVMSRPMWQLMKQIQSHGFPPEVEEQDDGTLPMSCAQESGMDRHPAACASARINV
Experimental Details: Percent inhibition of the induction of ornithine decarboxylase at 17 nmol dose in mouse dorsal epidermis (ODC assay)
Assay type: functional
Parameter: inhibition of control (%)
Express the result in % but write the number alone.

COc1cc(C(=O)O)ccc1/C=C(C)/C=C/C1=C(C)CCCC1(C)C ... 37
CCOC(=O)c1ccc(/C=C(C)/C=C/C2=C(C)CCCC2(C)C)c(F)c1 ... 46
CC1=C(/C=C/C(C)=C(\F)c2ccc(C(=O)O)cc2)C(C)(C)CCC1 ... 80
CCOC(=O)c1ccc(/C=C(C)/C=C/C2=C(C)CCCC2(C)C)cn1 ... 60
CCOC(=O)c1ccc(/C(F)=C(C)\C=C\C2=C(C)CCCC2(C)C)cc1 ... 16

Look up Ornithine decarboxylase (Mus musculus) data: inhibition of control of "CCOC(=O)c1ccc(/C=C(C)/C=C/C2=C(C)CCCC2(C)C)o1" , then report it. 9

Given "CC1=C(/C=C/C(C)=C\c2ccc(C(=O)O)cc2)C(C)(C)CCC1" , report its inhibition of control on Ornithine decarboxylase (Mus musculus). 43

Provide measured inhibition of control on Ornithine decarboxylase (Mus musculus) for "CCOC(=O)c1ccc(/C=C(C)/C=C/C2=C(C)CCCC2(C)C)c(OC)c1" please. 39

Determine reported inhibition of control for "CCOC(=O)c1ccc(/C=C(C)/C=C/C2=C(C)CCCC2(C)C)cc1" ; test system: Ornithine decarboxylase (Mus musculus). 80

Param request: inhibition of control | system Ornithine decarboxylase (Mus musculus) | item "CC1=C(/C=C/C(C)=C/c2ccc(C(=O)O)cc2F)C(C)(C)CCC1" 78

# return inhibition of control of "CC1=C(/C=C/C(C)=C/c2ccc(C(=O)O)cc2)C(C)(C)CCC1" (system: Ornithine decarboxylase (Mus musculus)) 69

Report inhibition of control from Ornithine decarboxylase (Mus musculus) testing of "CCOC(=O)c1ccc(/C(F)=C(C)/C=C/C2=C(C)CCCC2(C)C)cc1" 82

Provide inhibition of control, recorded with Ornithine decarboxylase (Mus musculus), of "CC1=C(/C=C/C(C)=C/c2ccc(C(=O)O)s2)C(C)(C)CCC1" 67

Under Ornithine decarboxylase (Mus musculus), report inhibition of control for "CCOC(=O)c1ccc(/C=C(C)\C=C\C2=C(C)CCCC2(C)C)s1" 76

Give the observed inhibition of control of "CCOC(=O)c1ccc(/C=C(C)/C=C/C2=C(C)CCCC2(C)C)s1" for Ornithine decarboxylase (Mus musculus). 77

Fill in inhibition of control for "CC1=C(/C=C/C(C)=C/c2ccc(C(=O)O)o2)C(C)(C)CCC1" tested with Ornithine decarboxylase (Mus musculus). 5

---

Tested on: Cricetinae gen. sp.
Experimental Details: Relative potency with respect to retinoic acid in hamster tracheal organ culture assay (TOC)
Format: functional, Cricetulus griseus, Trachea
Parameter: Relative activity

CC1=C(/C=C/C(C)=C/c2ccc(C(=O)O)o2)C(C)(C)CCC1 ... <<0.1
CCOC(=O)c1ccc(/C=C(C)/C=C/C2=C(C)CCCC2(C)C)s1 ... 3
COc1cc(C(=O)O)ccc1/C=C(C)/C=C/C1=C(C)CCCC1(C)C ... 3
CC1=C(/C=C/C(C)=C(\F)c2ccc(C(=O)O)cc2)C(C)(C)CCC1 ... 3
CCOC(=O)c1ccc(/C=C(C)/C=C/C2=C(C)CCCC2(C)C)o1 ... <<0.1

Given "CC1=C(/C=C/C(C)=C/c2ccc(C(=O)O)cc2)C(C)(C)CCC1" , respond with its Relative activity. 2

Please give measured Relative activity of the following entry: "CCOC(=O)c1ccc(/C(F)=C(C)/C=C/C2=C(C)CCCC2(C)C)cc1" 2

Kindly indicate its recorded Relative activity. Item: "CCOC(=O)c1ccc(/C=C(C)/C=C/C2=C(C)CCCC2(C)C)cc1" 1
